Task for the reader: assign each of the following compounds its reported LDL oxidation rate (rate of conjugated diene formation).
Test system: LDL
Assay: LDL oxidation by copper, conjugated diene formation (OD 234 nm)
Format: biochemical
Details: 10^−4 M; copper alone 3 nmol/min/mg of LDL

query: Requested field: LDL oxidation rate (rate of conjugated diene formation). Item: "CCCCC/C=C\C/C=C\CCCCCCCC(=O)OCC(COC(=O)CCCCCCC/C=C\C/C=C\CCCCC)OC(=O)CSCCCCCCCCCCCCCC"
result: 2.5 nmol/min/mg of LDL

query: Requested field: LDL oxidation rate (rate of conjugated diene formation). Item: "CCCCCCCCCCCCCCSCC(=O)OCC(COC(=O)CSCCCCCCCCCCCCCC)OC(=O)CSCCCCCCCCCCCCCC"
result: 1 nmol/min/mg of LDL

query: Requested field: LDL oxidation rate (rate of conjugated diene formation). Item: "CCCCCCCCCCCCCCCC(=O)OCC(COC(=O)CCCCCCCCCCCCCCC)OC(=O)CSCCCCCCCCCCCCCC"
result: 1.8 nmol/min/mg of LDL
